All values here come from patent US20170273932A1.

assay explanation: physchem
Format: physicochemical
condition info: 20 °C, organic solvent or mixture
attribute measured: solubility

Please report the recorded solubility for CO[C@@H]1[C@H](OC(=O)/C=C/c2ccc(OCCN(C)C)cc2)CC[C@]2(CO2)[C@H]1[C@@]1(C)O[C@@H]1CC=C(C)C .
~25 mg/mL

---

In this section, each of the molecules is paired with its reported D10.
assay explanation: Particle size of jet milled ZGN-440
Assay type: physicochemical
condition info: after jet milling

Please report the recorded D10 for CO[C@@H]1[C@H](OC(=O)/C=C/c2ccc(OCCN(C)C)cc2)CC[C@]2(CO2)[C@H]1[C@@]1(C)O[C@@H]1CC=C(C)C [FPS/2] .
1.1 µm

Please report the recorded D10 for CO[C@@H]1[C@H](OC(=O)/C=C/c2ccc(OCCN(C)C)cc2)CC[C@]2(CO2)[C@H]1[C@@]1(C)O[C@@H]1CC=C(C)C [FPS/3] .
1.2 µm

Please report the recorded D10 for CO[C@@H]1[C@H](OC(=O)/C=C/c2ccc(OCCN(C)C)cc2)CC[C@]2(CO2)[C@H]1[C@@]1(C)O[C@@H]1CC=C(C)C [FPS/5] .
1.2 µm

Please report the recorded D10 for CO[C@@H]1[C@H](OC(=O)/C=C/c2ccc(OCCN(C)C)cc2)CC[C@]2(CO2)[C@H]1[C@@]1(C)O[C@@H]1CC=C(C)C [NAT] .
1.7 µm

Please report the recorded D10 for CO[C@@H]1[C@H](OC(=O)/C=C/c2ccc(OCCN(C)C)cc2)CC[C@]2(CO2)[C@H]1[C@@]1(C)O[C@@H]1CC=C(C)C [FPS/4] .
1.5 µm

API: the following record is the query input.
Please report the recorded D10 for CO[C@@H]1[C@H](OC(=O)/C=C/c2ccc(OCCN(C)C)cc2)CC[C@]2(CO2)[C@H]1[C@@]1(C)O[C@@H]1CC=C(C)C [FPS/1] .
1.1 µm
